System: Lysine-specific histone demethylase 1A (Homo sapiens) | Read-out: IC50 | Origin: multiple publications

Take a look at these entries with their results.
Cn1cnc2cc(-c3sc(C(=O)N4CCC[C@@H](N)C4)nc3-c3ccc(C#N)cc3)cnc21 | ≤ 100 nM
Cn1nc2ccc(-n3c(-c4ccc(C#N)c(F)c4)nc(C(=O)N4CCC[C@@H](N)C4)c3F)cc2c1Cl | < 100 nM
Cn1cc2cc(-n3cc(C(=O)N4CCC[C@@H](N)C4)nc3-c3ccc(C#N)c(F)c3)ccc2n1 | < 100 nM

[in] What measured IC50 goes with CN[C@@H]1CCCN(c2ccnc3c2nc(-c2ccc(C#N)c(F)c2)n3-c2ccc(N3CCCC3)cc2)C1 ?
[out] 24 nM

[in] Next up: COc1cc(N2CCNC(=O)C2)ccc1-n1nc(C(=O)N2CCC[C@@H](N)C2)cc1-c1ccc(C#N)c(F)c1
[out] < 500 nM

[in] Next up: N#Cc1ccc(-c2cc(NC[C@H]3CCC[C@H](N)C3)nn2-c2ccc(-n3ccnn3)cc2)cc1F
[out] < 500 nM

[in] Next up: N#Cc1ccc(-c2nc(N3CCC(N)CC3)sc2-c2cnn(CC3CC3)c2)cc1
[out] ≤ 100 nM

[in] Next up: Cc1c(C(=O)N2CCC3(CCCN3)C2)nc(-c2ccc(C#N)c(F)c2)n1-c1ccc2nn(C)cc2c1 (stereo not shown)
[out] < 100 nM

[in] Next up: Cn1cc2cc(-n3nc(NC[C@H]4CCCNC4)cc3-c3ccc(C#N)c(F)c3)ccc2n1 (single isomer, unassigned)
[out] < 500 nM

[in] Next up: CN[C@H]1CCN(C(=O)c2cn(-c3ccc4nn(C)c(Cl)c4c3)c(-c3ccc(C#N)c(F)c3)n2)C1
[out] < 100 nM
